# measurement-target: human IGF-1 receptor (IGF-1R) (human, UniProt P08069)
# measurement-notes: competition
measured-metric: Ki (nM)

{"columns": ["binder", "measured-metric", "readout-value"],
 "data": [
  ["WLDQERAWLWCEISGRGCLSGGSGGSGGSGGSGSLDESFYDWFERQLGKK [D815-12aa-RP9]", "Ki", 3],
  ["WLDQERAWLWCEISGRGCLS [rD815]", "Ki", 4080],
  ["D815-6aa-G33 (protein) WLDQERAWLWCEISGRGCLSGGSGGSGIISQSCPESFYDWFAGQVSDPWWCW", "Ki", 624]
]}

Data provenance is patent US7173005.
